Data provenance is the Deep4Chem optical property database.

- assay-info: solvent given as SMILES
- condition-set: in Cc1ccccc1

| compound | absorption maximum, nm |
| --- | --- |
| COc1cc2c(cc1-c1ccccc1)Cc1c3c(c4c(c1-2)-c1cc(OC)c(-c2ccccc2)cc1C4)C(=O)N(CCC(C)C)C3=O | 405 |
| c1ccc(-c2nc(-c3ccc(-c4ccc(N(c5ccccc5)c5ccccc5)cc4)cn3)oc2-c2ccccc2)cc1 | 358 |
| CN(C)CCNc1ccc([N+](=O)[O-])cc1[N+](=O)[O-] | 347 |
| Cc1ccc2c(c1)C1(c3ccccc3-c3ccccc31)c1cc(C)ccc1N2c1ccc2c(c1)Sc1ccccc1P2(=S)c1ccccc1 (centres undefined) | 311.25 |
| CCCCc1ccc(-n2c3c4ccc(C(F)(F)F)cc4nnc3c3c2c2nnc4cc(C(F)(F)F)ccc4c2n3-c2ccc(CCCC)cc2)cc1 | 322 |
| c1cc2ccc3ccc4cc3c2cc1CCCCCCc1ccc2ccc3ccc-4cc3c2c1 | 336 |
| Cc1cc(C)c(C2=C3C=c4c(c5ccccc5c5ccccc45)=[N+]3[B-](F)(F)n3c2cc2c4ccccc4c4ccccc4c23)c(C)c1 | 680 |
| O=C1c2ccccc2C2=Cc3cccc[n+]3[B-](F)(F)N12 | 399 |
| F[B-]1(F)OC(c2ccc(C(F)(F)F)cc2)=Cc2cc(Cl)nc[n+]21 | 374 |
